target: Pim-2 (Homo sapiens); construct: His6-labelled recombinant full-length human Pim-1, Pim-2 or Pim-3 protein; His6; made in house; assay: TR-FRET assay, Pim-2 kinase (phosphorylation of Bad Ser112); format: biochemical; settings: TR-FRET; ATP 40 μM; read-out: IC50 Pim2
Sequence (Q9P1W9 whole entry): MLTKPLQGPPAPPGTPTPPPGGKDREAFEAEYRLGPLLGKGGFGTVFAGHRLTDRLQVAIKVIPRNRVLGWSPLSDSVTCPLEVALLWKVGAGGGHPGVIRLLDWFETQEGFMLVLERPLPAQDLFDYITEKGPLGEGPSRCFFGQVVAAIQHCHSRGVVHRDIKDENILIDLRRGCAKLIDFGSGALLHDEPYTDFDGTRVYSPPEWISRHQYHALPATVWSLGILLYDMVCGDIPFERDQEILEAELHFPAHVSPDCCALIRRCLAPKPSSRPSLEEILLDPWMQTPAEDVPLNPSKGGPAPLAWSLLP
pIC50: −log10 of the molar value.
Reported pIC50 values are given for each entry in this list.

Example entries and their recorded answers appear below.
{"SMI": "CN(C(=O)c1c(F)cnc2[nH]c3cnc(-c4cccnc4)cc3c12)c1ccccc1", "MEASUREMENT TARGET": "Pim-2 (Homo sapiens)", "pIC50": "< 5.30"}
{"SMI": "CC(=O)N1CCN(c2cccc(-c3cnc4[nH]c5cnc(-c6cccnc6)cc5c4c3)c2)CC1", "MEASUREMENT TARGET": "Pim-2 (Homo sapiens)", "pIC50": "< 5.30"}
{"SMI": "Fc1cnc2[nH]c3cnc(-c4cccnc4)cc3c2c1/C=C/c1ccccc1", "MEASUREMENT TARGET": "Pim-2 (Homo sapiens)", "pIC50": "< 5.30"}
{"SMI": "COCCOc1cnc2[nH]c3cnc(-c4cccnc4)cc3c2c1", "MEASUREMENT TARGET": "Pim-2 (Homo sapiens)", "pIC50": "5.30 to 6.00"}
{"SMI": "c1cncc(-c2cc3c(cn2)[nH]c2ncc(-c4cccc(N5CCN(C6CC6)CC5)c4)cc23)c1", "MEASUREMENT TARGET": "Pim-2 (Homo sapiens)", "pIC50": "< 5.30"}
{"SMI": "COc1cnc2[nH]c3cnc(-c4cccnc4)cc3c2c1-c1ccc(NS(C)(=O)=O)cc1", "MEASUREMENT TARGET": "Pim-2 (Homo sapiens)", "pIC50": "7.00 to 9.00"}
{"SMI": "CC(C)N1CCN(c2c(F)cnc3[nH]c4cnc(-c5cccnc5)cc4c23)CC1", "MEASUREMENT TARGET": "Pim-2 (Homo sapiens)", "pIC50": "5.30 to 6.00"}

Okay, now this compound:
Tell me measured pIC50 for "CS(=O)(=O)Nc1cccc(-c2c(F)cnc3[nH]c4cnc(-c5cccnc5)cc4c23)c1" please.
5.30 to 6.00
